target: PFKFB3 (6-phosphofructo-2-kinase/fructose-2,6-bisphosphatase-3) (Homo sapiens, UniProt Q16875); construct: recombinant human PFKFB3 produced in E. coli; assay: isothermal titration calorimetry (MicroCal Peaq-ITC, […] °C, triplicate)
Sequence (Q16875 whole entry): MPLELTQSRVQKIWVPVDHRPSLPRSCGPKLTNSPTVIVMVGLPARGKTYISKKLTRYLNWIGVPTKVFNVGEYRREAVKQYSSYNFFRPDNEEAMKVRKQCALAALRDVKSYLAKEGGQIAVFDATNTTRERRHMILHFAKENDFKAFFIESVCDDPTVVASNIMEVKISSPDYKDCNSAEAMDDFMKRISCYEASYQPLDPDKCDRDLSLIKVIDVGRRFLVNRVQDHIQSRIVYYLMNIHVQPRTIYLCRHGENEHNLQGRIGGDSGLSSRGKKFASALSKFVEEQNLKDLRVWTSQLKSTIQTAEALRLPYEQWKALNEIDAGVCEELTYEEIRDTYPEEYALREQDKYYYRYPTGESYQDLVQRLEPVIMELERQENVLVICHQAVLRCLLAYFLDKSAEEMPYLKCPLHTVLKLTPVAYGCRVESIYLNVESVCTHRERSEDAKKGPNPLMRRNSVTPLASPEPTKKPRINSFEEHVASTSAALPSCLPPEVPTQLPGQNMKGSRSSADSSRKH
pKd: −log10 of the molar value.

[
  {
    "compound": "Cc1noc(C)c1Cn1cc(C#N)c2cc(Oc3ccc(NC(=O)[C@@H]4CCCN4)cc3)ccc21 [AZ67]",
    "pKd": 6.77
  }
]
